# assay_procedure: Inhibition of HCV genotype 1b NS5A infected in HuH-7-Luc/Neo-ET cells assessed as reduction in viral replication measured by Luciferase reporter gene assay
pEC50: −log10 of the molar value.
value_kind: pEC50

1) COC(=O)N[C@H](C(=O)N1CC2(C[C@H]1c1ncc(-c3ccc(-c4ccc(-c5cnc([C@@H]6CC[C@@H]7CCC[C@H](N(C)C)C(=O)N76)[nH]5)cc4)cc3)[nH]1)OCCO2)C(C)C : 9.68
2) COC(=O)N[C@H](C(=O)N1CC2(C[C@H]1c1ncc(-c3ccc(-c4ccc(-c5cnc([C@@H]6CC[C@@H]7CCC[C@@H](NC(=O)OC)C(=O)N76)[nH]5)cc4)cc3)[nH]1)OCCO2)C(C)C : 10.10
3) COC(=O)N[C@H]1CCC[C@@H]2CC[C@@H](c3ncc(-c4ccc(-c5ccc(-c6cnc([C@@H]7CCCN7C(=O)[C@@H](NC(=O)OC)C(C)C)[nH]6)cc5)cc4)[nH]3)N2C1=O : 10.43
4) COC(=O)N[C@H]1CCC[C@@H]2CC[C@@H](c3ncc(-c4ccc(-c5ccc(-c6cnc([C@@H]7CC8(CN7C(=O)[C@@H](NC(=O)OC)C(C)C)OCCO8)[nH]6)cc5)cc4)[nH]3)N2C1=O : 10.19
5) COC(=O)N[C@H](C(=O)N1CC2(C[C@H]1c1ncc(-c3ccc(-c4ccc(-c5cnc([C@@H]6CC[C@@H]7CCC[C@@H](N(C)C)C(=O)N76)[nH]5)cc4)cc3)[nH]1)OCCO2)C(C)C : 9.66
